experimental_system: sGC α1/β1 heterodimer (Homo sapiens, UniProt Q02108+Q02153)
Sequence (Q02108 1-690): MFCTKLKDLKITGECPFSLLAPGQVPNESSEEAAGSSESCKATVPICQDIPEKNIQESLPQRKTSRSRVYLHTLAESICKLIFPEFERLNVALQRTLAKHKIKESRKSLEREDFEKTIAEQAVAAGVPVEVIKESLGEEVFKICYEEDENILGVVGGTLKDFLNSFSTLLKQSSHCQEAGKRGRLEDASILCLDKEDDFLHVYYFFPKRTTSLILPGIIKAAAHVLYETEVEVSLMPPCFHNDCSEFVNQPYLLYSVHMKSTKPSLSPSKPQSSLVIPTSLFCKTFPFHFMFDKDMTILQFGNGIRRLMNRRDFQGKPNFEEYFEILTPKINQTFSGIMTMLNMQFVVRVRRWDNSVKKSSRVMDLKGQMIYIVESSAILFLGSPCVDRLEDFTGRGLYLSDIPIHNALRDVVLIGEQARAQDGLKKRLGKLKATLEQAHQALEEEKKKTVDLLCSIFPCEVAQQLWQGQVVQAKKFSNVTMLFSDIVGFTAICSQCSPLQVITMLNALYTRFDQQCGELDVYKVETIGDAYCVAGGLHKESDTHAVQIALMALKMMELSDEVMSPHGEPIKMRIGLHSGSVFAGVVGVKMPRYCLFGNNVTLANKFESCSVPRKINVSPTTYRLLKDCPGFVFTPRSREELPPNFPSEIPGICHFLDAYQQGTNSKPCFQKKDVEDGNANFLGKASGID
Sequence (Q02153 1-619): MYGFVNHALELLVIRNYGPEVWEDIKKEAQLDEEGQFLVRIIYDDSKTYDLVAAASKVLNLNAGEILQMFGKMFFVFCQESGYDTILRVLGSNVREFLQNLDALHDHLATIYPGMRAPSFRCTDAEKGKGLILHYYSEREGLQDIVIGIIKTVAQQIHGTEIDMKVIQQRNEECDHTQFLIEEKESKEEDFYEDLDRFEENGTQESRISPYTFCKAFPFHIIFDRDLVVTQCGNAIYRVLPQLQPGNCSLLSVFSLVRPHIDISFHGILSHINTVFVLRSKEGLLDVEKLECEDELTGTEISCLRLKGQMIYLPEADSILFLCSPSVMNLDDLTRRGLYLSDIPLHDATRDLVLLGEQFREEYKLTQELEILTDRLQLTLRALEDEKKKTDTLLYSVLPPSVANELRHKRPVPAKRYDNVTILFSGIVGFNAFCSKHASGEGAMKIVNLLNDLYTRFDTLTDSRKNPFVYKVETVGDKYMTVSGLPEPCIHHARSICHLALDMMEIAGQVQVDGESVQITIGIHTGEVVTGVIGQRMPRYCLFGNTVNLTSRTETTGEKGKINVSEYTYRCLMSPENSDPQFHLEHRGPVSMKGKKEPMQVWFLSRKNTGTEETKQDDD
experiment_summary: Cell-based sGC functional assay (CASA assay): cGMP generation in CHO-K1/sGC cells, HTRF detection
condition_label: inflection point (IP) of cGMP generation in CHO-K1/sGC cells, 4P fit; activity expressed as percentage of Compound A
pEC50: −log10 of the molar value.
# key: entry, value: pEC50
property: pEC50

>>> quantitative_readout("CCCc1nc(-c2nc(N)c3c(n2)NC(=O)C3(C)c2ccc(C(F)(F)F)cc2)cn2ccnc12 (stereo not shown) [Example 131B]")
6.75
>>> quantitative_readout("COc1ccc(C2(C3CC3)C(=O)Nc3nc(-c4cn5ccnc5c(CCC(F)(F)C(F)(F)F)n4)nc(N)c32)cn1 (stereo not shown) [Example 343A]")
7.34
>>> quantitative_readout("CC1(c2ccc(F)cc2)C(=O)Nc2nc(-c3cn4cc(C(F)(F)F)nc4c(CCC(F)(F)C(F)(F)F)n3)nc(N)c21 (stereo not shown) [Example 156A]")
6.79
>>> quantitative_readout("CCC(CC)Cc1nc(-c2nc(N)c3c(n2)NC(=O)C3(C)c2ccc(F)cn2)cn2ccnc12 (stereo not shown) [Example 18B]")
6.84

The origin of these recorded values is patent US9796733B2.
